Source: paper PMC8535469

# testedSystem: hNudt16 (Homo sapiens, UniProt Q96DE0)
# Sequence (Q96DE0 whole entry): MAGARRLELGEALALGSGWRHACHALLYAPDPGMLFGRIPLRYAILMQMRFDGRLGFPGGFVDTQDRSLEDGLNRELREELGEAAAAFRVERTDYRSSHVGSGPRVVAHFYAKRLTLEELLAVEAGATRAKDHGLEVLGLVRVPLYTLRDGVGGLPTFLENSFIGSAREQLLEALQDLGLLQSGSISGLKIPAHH
# protocolNotes: Enzymatic hydrolysis catalyzed by hNudt16, products quantified by HPLC
# Type: biochemical
# Design: 4xHis (four added histidines); made in house
# experimentalParameters: 20 µM substrate, 37 °C, pH 7.9, 6 mM MgCl2; nd = hydrolysis products not detected
experimentalReadout: Hydrolysis Products

Nc1nc2c(ncn2[C@@H]2O[C@H](COP(=O)(O)OP(=O)(O)OC[C@H]3O[C@@H](n4cnc5c(=O)[nH]c(N)nc54)[C@H](O)[C@@H]3O)[C@@H](O)[C@H]2O)c(=O)[nH]1 | GMP

====

# testedSystem: hNudt16 (Homo sapiens)
# protocolNotes: Enzymatic hydrolysis catalyzed by hNudt16, products quantified by HPLC
# Assay type: biochemical
# Parameters: 4xHis (four added histidines); made in house
# experimentalParameters: 20 µM substrate, 37 °C, pH 7.9, 6 mM MgCl2; nd = hydrolysis products not detected
experimentalReadout: Hydrolysis Products

Nc1ncnc2c1ncn2[C@@H]1O[C@H](COP(=O)(O)OP(=O)(O)OC[C@H]2O[C@@H](n3cnc4c(N)ncnc43)[C@H](O)[C@@H]2O)[C@@H](O)[C@H]1O | AMP

====

# testedSystem: hNudt16E76Q (Homo sapiens, UniProt Q96DE0, E76Q)
# Construct: 4xHis (four added histidines); made in house; host or cells: E. coli Rosetta 2 (DE3), pET16b
# Sequence (Q96DE0 whole entry E76Q): as the sequence (Q96DE0 whole entry) above, with E76Q counted along it
# protocolNotes: Thermal stability of hNudt16E76Q with ligands, DSF with SYPRO Orange
# Assay type: binding
# experimentalParameters: 5 µM hNudt16E76Q, 20 mM MgCl2, 0.5 mM ligand, 4× SYPRO Orange, relative to apo
# Description: The protein thermal stability of wild-type hNudt16 and all tested mutants in the presence of increasing Mg^2+ ion concentration was measured using DSF with SYPRO orange dye on CFX RT-PCR (Bio-Rad, Hercules, CA, USA). This method is based on the change in fluorescence of the SYPRO orange dye in an aqueous buffer, which is strongly quenched, while its binding to the exposed hydrophobic regions of thermally unfolded protein results in an increased fluorescence. […]
experimentalReadout: ∆Tm, DSF (with SYPRO Orange) (°C)

Some entries whose results are on file:
Nc1ccn([C@@H]2O[C@H](COP(=O)(O)OP(=O)(O)O)[C@@H](O)[C@H]2O)c(=O)n1 [CDP, Cytidine diphosphate] | 1.81
Nc1nc2c(ncn2[C@@H]2O[C@H](COP(=O)(O)OP(=O)(O)OC[C@H]3O[C@@H](n4cnc5c(=O)[nH]c(N)nc54)[C@H](O)[C@@H]3O)[C@@H](O)[C@H]2O)c(=O)[nH]1 | 17.5
C[n+]1cn([C@@H]2O[C@H](COP(=O)(O)OP(=O)(O)O)[C@@H](O)[C@H]2O)c2nc(N)[nH]c(=O)c21 [m^7GDP, 7-methylguanosine diphosphate] | 0.7
C[n+]1cn([C@@H]2O[C@H](COP(=O)([O-])OP(=O)(O)OC[C@H]3O[C@@H](n4cnc5c(=O)[nH]c(N)nc54)[C@H](O)[C@@H]3O)[C@@H](O)[C@H]2O)c2nc(N)[nH]c(=O)c21 | 14.4
Nc1nc2c(ncn2[C@@H]2O[C@H](COP(=O)(O)O)[C@@H](O)[C@H]2O)c(=O)[nH]1 [GMP, Guanosine monophosphate] | 4.3

[a] NC(=O)c1ccc[n+]([C@@H]2O[C@H](COP(=O)([O-])OP(=O)(O)OC[C@H]3O[C@@H](n4cnc5c(N)ncnc54)[C@H](O)[C@@H]3O)[C@@H](O)[C@H]2O)c1 [NAD, Nicotinamide adenine dinucleotide]
[b] NC(=O)C1=CN([C@@H]2O[C@H](COP(=O)(O)OP(=O)(O)OC[C@H]3O[C@@H](n4cnc5c(N)ncnc54)[C@H](O)[C@@H]3O)[C@@H](O)[C@H]2O)C=CC1
[c] Nc1nc2c(ncn2[C@@H]2O[C@H](COP(=O)(O)OP(=O)(O)OP(=O)(O)OC[C@H]3O[C@@H](n4cnc5c(=O)[nH]c(N)nc54)[C@H](O)[C@@H]3O)[C@@H](O)[C@H]2O)c(=O)[nH]1
Sort by ∆Tm, DSF (with SYPRO Orange), descending. List the labels in the requested order.
c, b, a
